The reported measurements were obtained from paper PMC10397247.

Molecular target: T1, 4H881-AA
T1 chain: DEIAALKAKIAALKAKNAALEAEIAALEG
Test: two-hybrid library CCmax;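 note: natural log of median RNA to DNA barcode read ratio; higher means stronger binding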
Details: mean of both orientations
One threshold, -0.5, splits the recorded interaction score values: lower ones are True, equal or higher ones are False.

These solved cases illustrate the format of a correct answer.
Binder: DEIAALKAKIAALEAENAALKAEIAALKG [4H794-AA]
Class Label: True
--
Binder: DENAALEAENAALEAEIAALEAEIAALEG [4H1153-AA]
Class Label: True
--
Binder: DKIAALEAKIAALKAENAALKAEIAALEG [4H2393-AA]
Class Label: True
--
Binder: DKIAALEAENAALKAKIAALEAKIAALEG [4H2277-AA]
Class Label: True
--
Binder: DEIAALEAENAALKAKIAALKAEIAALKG [4H234-AA]
Class Label: True
--
Binder: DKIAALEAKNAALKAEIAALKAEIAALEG [4H2505-AA]
Class Label: True
--
Binder: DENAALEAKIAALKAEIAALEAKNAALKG [4H1352-AA]
Class Label: True
--
Binder: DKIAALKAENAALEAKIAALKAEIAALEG [4H2729-AA]
Class Label: False
--
Binder: DKIAALEAEIAALKAKIAALEAKNAALEG [4H2151-AA]
Class Label: True
--
Binder: DEIAALEAEIAALEAKIAALKAKNAALKG [4H48-AA]
Class Label: False

Query :: Threshold test, interaction score < -0.5: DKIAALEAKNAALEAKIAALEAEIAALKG [4H2466-AA]
Result :: True

Query :: Dear colleague, could you confirm whether interaction score of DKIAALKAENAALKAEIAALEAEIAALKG [4H2754-AA] falls below -0.5? Thanks.
Result :: False

Query :: Answer whether the binder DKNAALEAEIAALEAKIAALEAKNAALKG [4H3112-AA] has interaction score strictly less than -0.5
Result :: True

Query :: # strict comparison: is reported interaction score < -0.5? input = DEIAALKAENAALEAKIAALEAKIAALKG [4H678-AA]
Result :: False
